Hi there, I'd appreciate the recorded IC50 for every entry that follows.
tested.on: recombinant JAK2 (JAK2 JH1 domain) (Homo sapiens, UniProt O60674)
Construct: 50 nM JAK2 JH1 domain (Upstate)
Sequence (O60674 849-1124 limits assumed): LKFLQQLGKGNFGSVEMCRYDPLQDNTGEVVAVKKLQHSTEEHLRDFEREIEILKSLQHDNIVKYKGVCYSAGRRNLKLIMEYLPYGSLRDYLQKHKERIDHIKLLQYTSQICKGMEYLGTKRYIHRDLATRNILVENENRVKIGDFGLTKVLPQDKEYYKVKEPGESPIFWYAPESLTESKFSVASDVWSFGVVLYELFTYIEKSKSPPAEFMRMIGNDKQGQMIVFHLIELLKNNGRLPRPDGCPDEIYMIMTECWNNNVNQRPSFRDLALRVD
measurement.description: JAK2 Kinase Activity Inhibition Assay and Determination of IC50 (HTRF)
conditions.used: 50 nM JAK2 JH1 domain, 15 μM MgATP, 80 min at room temperature

Param item = CC(C)(O)c1cc(F)c(-c2cc(C(N)=O)c(Nc3ccc(C(=O)N4CCOCC4)cc3)s2)c(F)c1 [Example 14] ; retrieve measured IC50.
21 nM

Param item = CC(C)(O)c1cc(F)c(-c2cc(C(N)=O)c(Nc3ccnc(CO)c3)s2)c(F)c1 [Example 7] ; retrieve measured IC50.
75 nM

Param item = CC(C)(O)c1cc(F)c(-c2cc(C(N)=O)c(Nc3ccc(S(=O)(=O)N4CCOCC4)cc3)s2)c(F)c1 [Example 28] ; retrieve measured IC50.
56 nM

Param item = CC(C)(O)c1cc(F)c(-c2cc(C(N)=O)c(Nc3ccccc3)s2)c(F)c1 [Example 21] ; retrieve measured IC50.
490 nM

====

tested.on: recombinant JAK2 (JAK2 JH1 domain) (Homo sapiens, UniProt O60674)
Construct: 50 nM JAK2 JH1 domain (Upstate)
measurement.description: JAK2 Kinase Activity Inhibition Assay and Determination of IC50 (HTRF)
conditions.used: 50 nM JAK2 JH1 domain, 15 μM MgATP, 80 min at room temperature
Hi there, I'd appreciate the recorded IC50 for every entry that follows.
Numbers only here, please. The scale is nM.

Param item = CN(C)Cc1ccc(Nc2sc(-c3c(F)cc(C(C)(C)O)cc3F)cc2C(N)=O)cc1 [Example 26] ; retrieve measured IC50.
22

Param item = CC(C)(O)c1cc(F)c(-c2cc(C(N)=O)c(Nc3ccc(CN4CCOCC4)cc3)s2)c(F)c1 [Example 23] ; retrieve measured IC50.
42

Param item = NC(=O)c1cc(-c2ccccc2)sc1Nc1cncnc1 [Example 19] ; retrieve measured IC50.
2600

Param item = CC(C)(O)c1cc(F)c(-c2cc(C(N)=O)c(Nc3ccc(NS(C)(=O)=O)cc3)s2)c(F)c1 [Example 31] ; retrieve measured IC50.
56

Param item = NC(=O)c1cc(-c2ccccc2)sc1Nc1ccccc1 [Example 17] ; retrieve measured IC50.
1000

Param item = NC(=O)c1cc(-c2ccccc2)sc1Nc1cccnc1 [Example 18] ; retrieve measured IC50.
320

Param item = CC(C)(O)c1ccc(-c2cc(C(N)=O)c(Nc3cccnc3)s2)cc1 [Example 10] ; retrieve measured IC50.
220

Param item = NC(=O)c1cc(-c2ccccc2)sc1Nc1ccncc1 [Example 20] ; retrieve measured IC50.
180

Param item = CC(C)(O)c1cc(F)c(-c2cc(C(N)=O)c(Nc3ccc(CN4CCS(=O)(=O)CC4)cc3)s2)c(F)c1 [Example 25] ; retrieve measured IC50.
26

====

tested.on: recombinant JAK2 (JAK2 JH1 domain) (Homo sapiens, UniProt O60674)
Construct: 50 nM JAK2 JH1 domain (Upstate)
measurement.description: JAK2 Kinase Activity Inhibition Assay and Determination of IC50 (HTRF)
conditions.used: 50 nM JAK2 JH1 domain, 15 μM MgATP, 80 min at room temperature
endpoint.label: pIC50
Give only the number. pIC50 is defined as minus log10 of concentration in molar units.

Param item = `CN(C)C(=O)c1ccc(Nc2sc(-c3c(F)cc(C(C)(C)O)cc3F)cc2C(N)=O)cc1` ; retrieve measured pIC50.
7.68

Param item = `CC(C)(O)c1cc(F)c(-c2cc(C(N)=O)c(Nc3ccc(S(C)(=O)=O)cc3)s2)c(F)c1` ; retrieve measured pIC50.
7.33

Param item = `CC(C)(O)c1cc(F)c(-c2cc(C(N)=O)c(Nc3ccncc3)s2)c(F)c1` ; retrieve measured pIC50.
6.92

Param item = `CN(C)S(=O)(=O)c1ccc(Nc2sc(-c3c(F)cc(C(C)(C)O)cc3F)cc2C(N)=O)cc1` ; retrieve measured pIC50.
7.36

Param item = `CC(C)(O)c1cc(F)c(-c2cc(C(N)=O)c(Nc3ccc(CO)cc3)s2)c(F)c1` ; retrieve measured pIC50.
6.77

Param item = `Cc1noc(-c2ccc(Nc3sc(-c4c(F)cc(C(C)(C)O)cc4F)cc3C(N)=O)cc2)n1` ; retrieve measured pIC50.
5.85

Param item = `CC(C)(O)c1ccc(Nc2sc(-c3c(F)cc(C(C)(C)O)cc3F)cc2C(N)=O)cc1` ; retrieve measured pIC50.
7.54

Param item = `CS(=O)(=O)c1ccc(Nc2sc(-c3ccc(Cl)cc3)cc2C(N)=O)cc1` ; retrieve measured pIC50.
6.66
